- tested.on: T1, His-tagged human TNFR2 (Human TNFR2/CD120b/TNFRSF1B Protein, His Tag, Acrobiosystems Cat #: TN2-5227) (human, UniProt P20333 23-257)
- T1 construct: Bought protein; also called hTNFR2-His; Recombinant human TNFR2 proteins with His-tag; not shown: His tag
- T1 sequence: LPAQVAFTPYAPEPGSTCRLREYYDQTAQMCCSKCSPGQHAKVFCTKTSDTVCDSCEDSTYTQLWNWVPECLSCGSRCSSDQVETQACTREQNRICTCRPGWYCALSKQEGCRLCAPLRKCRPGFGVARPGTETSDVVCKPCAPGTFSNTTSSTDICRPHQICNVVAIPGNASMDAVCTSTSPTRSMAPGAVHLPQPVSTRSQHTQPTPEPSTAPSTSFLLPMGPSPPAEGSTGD
- procedure.summary: SPR Biacore 8K, antibody captured on Protein A chip, hTNFR2-His as analyte, 1:1 model
measure: kon (M⁻¹ s⁻¹)
Supply the numeric figure in M⁻¹ s⁻¹, leaving out any unit text.

Ask: Suppose we examine the binder BC-1F4-IgG1 (antibody, V domains shown, Human VH/VL joined to the human IgG1 subtype) VH: QVQLQQSGPGLVKPSQTLSLTCAISGDSVSSDSSAWNWIRQSPSRGLEWLGRTYYRSKWYNDYTVSVKSRITINPDTSKNQFSLQLNSVTPEDTAVYYCAREDGVGGTKDYFDYWGQGTLVTVSS VL: DIQMTQSPSSLSASVGDRVTITCQASQDISNYLNWYQQKPGKAPKLLIYDASNLETGVPSRFSGSGSGTDFTFTINSLQPEDFATYFCQQYDNLPITFGQGTRLEIK ; what kon value has been reported?
Result: 718000

Ask: Would you mind telling me what kon value was observed for BC-1A8-IgG1 (antibody, V domains shown, Fully human VH/VL joined to the human IgG1 subtype, kappa light chain (RenMab mice)) VH: QVQLQQSGPGLVKPSQTLSLTCAISGDSVSSNSAAWNWIRQSPSRGLEWLGRTYYRSKWYNDYALSVKSRITINPETSKNQFSLQLNSVTPEDTAVYYCAREDGVGGTKDYFDYWGQGTLVTVSS VL: DIQMTQSPSSLSASVGDRVTITCQASQDIDNYLNWYQQKPGKAPKLLIYDVSNLEIGVPSRFSGSGSGTDFTFTISSLQPEDIATYYCQQYDNLPLTFGQGTRLEIK ?
Result: 924000

Ask: May I ask what kon has been recorded for BC-1C3-IgG1 (antibody, V domains shown, Human VH/VL joined to the human IgG1 subtype) VH: QVQLVESGGGVVHPGKSLRLSCAASGFTFNIYGMHWVRQAPGKGLEWVALISYDGNDKYFADSVKGRFTISRDNSKNTLYLQMNSLRAEDTAVYYCAKAVDTAVVTFFDYWGQGTLVTVSS VL: EIVMTQSPVTLSVSPGERATLSCRASQSVSSNLAWYQQKPGQAPRLLIYSASTRATGIPARFSGSGSGTEFTLTISSLQSEDLAVYYCQQYSNWPFTFGPGTKVDIK ?
Result: 121000

Ask: Fill in: kon of BC-1B6-IgG1 (antibody, V domains shown, Human VH/VL joined to the human IgG1 subtype) VH: QVQLVESGGGVVQPGRSLRLSCAASGFTFSNFGMHWVRQAPGKGLEWVAVIWYEGSDKYYADSVKGRFTISRDNSKNTLYLQMNSLRAEDTAVYYCARDSSWGFLLYGMDVWGQGTTVTVSS VL: DVVMTQSPLSLPVTLGQPASISCRSSRSLEYSDGNTYLNWFQQRPGQSPRRLIYKVSNRDSGVPDRFSGSGSGTAFTLKISGVEAEDVGVYYCMQGTHWPPTFGGGTKVEIK is ___
Result: 1.66e+06
